tested on: Hep G2 cell line; assay: solid tumor cell growth inhibition, MTT; format: cell-based, human; conditions: Homo sapiens, HepG2, 72 h, Hep G2, 16 μg/mL compound, 72 h; read-out: IR (cell proliferation inhibition rate)
experimental-endpoint: inhibition at 16 µg/mL (%)

{"compound": "CCN(CC)CCCNC(=O)C1C[C@]2(C)[C@H]3CC=C4[C@@H]5CC(C)(C)CC[C@]5(C(=O)OC)CC[C@@]4(C)[C@]3(C)CC[C@H]2C(C)(C)C1=O (some centres unmarked)", "unit-label": "%", "lt-gt-eq": ">", "observed-measurement": 96}
{"compound": "CCN(CC)CCNC(=O)C1C[C@@]2(C)C(CC[C@]3(C)C2CC=C2C4CC(C)(C)CC[C@]4(C(=O)OC)CC[C@]23C)C(C)(C)C1=O (some centres unmarked)", "unit-label": "%", "lt-gt-eq": ">", "observed-measurement": 96}
{"compound": "COC(=O)[C@]12CCC(C)(C)CC1C1=CCC3[C@@]4(C)CC(C(=O)NC5CC5)C(=O)C(C)(C)C4CC[C@@]3(C)[C@]1(C)CC2 (some centres unmarked)", "unit-label": "%", "lt-gt-eq": "=", "observed-measurement": 8.9}
{"compound": "CN1CCN(CCCNC(=O)C2C[C@]3(C)[C@H]4CC=C5[C@@H]6CC(C)(C)CC[C@]6(C(=O)O)CC[C@@]5(C)[C@]4(C)CC[C@H]3C(C)(C)C2=O)CC1 (some centres unmarked)", "unit-label": "%", "lt-gt-eq": "=", "observed-measurement": 29.5}
{"compound": "CCN(CC)CCNC(=O)C1C[C@@]2(C)C(CC[C@]3(C)C2CC=C2C4CC(C)(C)CC[C@]4(C(=O)O)CC[C@]23C)C(C)(C)C1=O (some centres unmarked)", "unit-label": "%", "lt-gt-eq": "=", "observed-measurement": 33.6}
{"compound": "CCOCCNC(=O)C1C[C@@]2(C)C(CC[C@]3(C)C2CC=C2C4CC(C)(C)CC[C@]4(C(=O)OC)CC[C@]23C)C(C)(C)C1=O (some centres unmarked)", "unit-label": "%", "lt-gt-eq": "=", "observed-measurement": 6.8}
{"compound": "COC(=O)[C@]12CCC(C)(C)CC1C1=CCC3[C@@]4(C)CC(C(=O)NCCC(C)C)C(=O)C(C)(C)C4CC[C@@]3(C)[C@]1(C)CC2 (some centres unmarked)", "unit-label": "%", "lt-gt-eq": "=", "observed-measurement": 6.7}
{"compound": "COC(=O)[C@]12CCC(C)(C)C[C@H]1C1=CC[C@@H]3[C@@]4(C)CC(C(=O)NCCN5CCOCC5)C(=O)C(C)(C)[C@@H]4CC[C@@]3(C)[C@]1(C)CC2 (some centres unmarked)", "unit-label": "%", "lt-gt-eq": "=", "observed-measurement": 0.6}
